Measured GI50, listed per entry.
Test system: HT-29
assayRemarks: NCI tumour cell line growth inhibition, 48 h
The source made the active and inactive calls. No stated cut-off is given here; in the data, active = GI50 up to about 1.1 µM and inactive = higher.
testReadout: GI50

compound: O=c1oc2ccc(Cl)cc2cc1-c1cn2ccsc2n1
valueMeasured: 52.8 µM (inactive)
--
compound: COc1cccc2c1CCc1sc(CN3CCN(C)CC3)nc1-2
valueMeasured: 20.4 µM (inactive)
--
compound: Cc1ccc(/N=N/NCCCCN)cc1
valueMeasured: > 100 µM (inactive)
--
compound: OC(c1ccccc1)(c1cccnc1)C(O)(c1ccccc1)c1cccnc1 (centres undefined)
valueMeasured: > 100 µM (inactive)

###

Tested on: SF-268
assayRemarks: NCI tumour cell line growth inhibition, 48 h
Activity calls are given as the source filed them. Rule as the data show it: active = GI50 up to about 1.1 µM and inactive = higher.
Outcome codes: Yes = active, No = inactive

compound: O=c1[nH]nc(-c2ccccc2)n1-n1cnnc1
classLabel: No

compound: COC1(OC)CCCc2c1no[n+]2[O-]
classLabel: No

compound: CCN(CC)CCNc1ccc2ncn3c4cc(OC)c(OC)c(O)c4c(=O)c1c23
classLabel: No

compound: CCCCC1Cc2cc(O)ccc2-c2n1c1cc(O)ccc1[n+]2C.CCCCC1Cc2cc(O)ccc2-c2n1c1ccc(O)cc1[n+]2C (centres undefined)
classLabel: No

compound: Cc1cccc(C(O)c2ccncc2)c1O (centres undefined)
classLabel: No

compound: Clc1ccc2c(c1)[nH]c1c2nc2ccccn21
classLabel: No

compound: CCOC(=O)CSc1[nH]c(NC(=S)Nc2ccccc2)c(C(N)=O)c1C(N)=O
classLabel: No

compound: OC(c1ccccc1)(c1cccnc1)C(O)(c1ccccc1)c1cccnc1 (centres undefined)
classLabel: No

compound: COc1cc2c(c(OC)c1O)-c1ccc(SC)c(=O)cc1C(NC(C)=O)CC2 (centres undefined)
classLabel: Yes

compound: NC1=C(NC(=O)Cc2ccccc2F)C(=O)c2ccccc2C1=O
classLabel: No

compound: COc1ccc(/C=C/C(=O)c2sc(-n3nc(-c4ccccc4)cc3-c3ccccc3)nc2C)cc1
classLabel: No

compound: Nc1ccc(C(=O)NN2C(=O)C(Cl)C2c2cc(Br)cc(Br)c2O)cc1 (centres undefined)
classLabel: No

compound: O=c1oc(=O)c2oc3ccccc3oc1=2
classLabel: No

compound: [O-][S+]1CSCS1 (centres undefined)
classLabel: No

compound: OC(CN1CCCCC1)c1ccc(/C=C/c2ccc(Cl)cc2)cc1 (centres undefined)
classLabel: No

compound: COc1ccc(O)c(C(=O)CCC(=O)O)c1
classLabel: No

compound: COc1cc(Nc2cnc3cc(N)ccc3n2)cc(OC)c1OC
classLabel: No

compound: O=C(O)[C@@H](NS(=O)(=O)c1ccc2ccccc2c1)c1ccccc1
classLabel: No

compound: C1C2CC3CC1CC(c1nn4c(C56CC7CC(CC(C7)C5)C6)nnc4s1)(C2)C3
classLabel: No

compound: CCOC(=O)N1CC2(C(=O)OC)C=CC1C(C(=O)OC)C2 (centres undefined)
classLabel: No

compound: CCOC(=O)NC(C(=O)OCC)C(F)(F)F (centres undefined)
classLabel: No

compound: Cc1cc(C)cc(Sc2c([N+](=O)[O-])ncn2C)c1
classLabel: No

compound: Cc1ccc2oc3c(ccc(=O)n3C)c(=O)c2c1
classLabel: No

compound: NC1=C(C(=O)O)C(=O)C(Nc2c(O)cccc2C(=O)O)=CC1=O
classLabel: Yes

compound: CC(=O)OC1CC2(C)C(=CC1C1SCCS1)CCC1C2CCC2(C)C(OC(C)=O)CCC12 (centres undefined)
classLabel: No

compound: CCCS(=O)OC1C(C2COC(C)(C)O2)OC2OC(C)(C)OC21 (centres undefined)
classLabel: No

compound: S=c1cc(-c2ccc3c(c2)OCO3)s[nH]1
classLabel: No

compound: OCCN(C1=NCCN1)/[N+](=C/c1ccccc1O)[CH-]c1ccccc1O
classLabel: No

compound: O=c1c2sc3nc(NCCN4CCCCC4)ncc3c2ncn1-c1ccccc1
classLabel: No
